Value source: patent EP0993454B1

MEASURED TARGET: farnesyl protein transferase (Homo sapiens, UniProt P49354+P49356)
PROCEDURE SUMMARY: FPT IC50 (inhibition of farnesyl protein transferase, in vitro enzyme assay)
RUN PARAMETERS: procedure of WO 95/10516, one collective range stated for the five listed compounds
pIC50: −log10 of the molar value.
Here the recorded pIC50 is given for each entry.

NC(=O)CN1CCC(CC(=O)N2CCC(C3(O)c4ncc(Br)cc4CCc4cc(Cl)cc(Br)c43)CC2)CC1 (centres unmarked): 7.38 to 8.70

Now turn to the next molecule.
Req: Suppose we examine the molecule O=C(CC1CCNCC1)N1CCC(C2(O)c3ncc(Br)cc3CCc3cc(Cl)cc(Br)c32)CC1 (centres unmarked) ; what pIC50 value has been reported?
Resp: 7.38 to 8.70
